Below: a set of entries, each annotated with reported IC50.
target desc: EHMT2 (Homo sapiens, UniProt Q96KQ7)
Construct: host or cells: MDA-MB-231
Sequence (Q96KQ7 1-1210): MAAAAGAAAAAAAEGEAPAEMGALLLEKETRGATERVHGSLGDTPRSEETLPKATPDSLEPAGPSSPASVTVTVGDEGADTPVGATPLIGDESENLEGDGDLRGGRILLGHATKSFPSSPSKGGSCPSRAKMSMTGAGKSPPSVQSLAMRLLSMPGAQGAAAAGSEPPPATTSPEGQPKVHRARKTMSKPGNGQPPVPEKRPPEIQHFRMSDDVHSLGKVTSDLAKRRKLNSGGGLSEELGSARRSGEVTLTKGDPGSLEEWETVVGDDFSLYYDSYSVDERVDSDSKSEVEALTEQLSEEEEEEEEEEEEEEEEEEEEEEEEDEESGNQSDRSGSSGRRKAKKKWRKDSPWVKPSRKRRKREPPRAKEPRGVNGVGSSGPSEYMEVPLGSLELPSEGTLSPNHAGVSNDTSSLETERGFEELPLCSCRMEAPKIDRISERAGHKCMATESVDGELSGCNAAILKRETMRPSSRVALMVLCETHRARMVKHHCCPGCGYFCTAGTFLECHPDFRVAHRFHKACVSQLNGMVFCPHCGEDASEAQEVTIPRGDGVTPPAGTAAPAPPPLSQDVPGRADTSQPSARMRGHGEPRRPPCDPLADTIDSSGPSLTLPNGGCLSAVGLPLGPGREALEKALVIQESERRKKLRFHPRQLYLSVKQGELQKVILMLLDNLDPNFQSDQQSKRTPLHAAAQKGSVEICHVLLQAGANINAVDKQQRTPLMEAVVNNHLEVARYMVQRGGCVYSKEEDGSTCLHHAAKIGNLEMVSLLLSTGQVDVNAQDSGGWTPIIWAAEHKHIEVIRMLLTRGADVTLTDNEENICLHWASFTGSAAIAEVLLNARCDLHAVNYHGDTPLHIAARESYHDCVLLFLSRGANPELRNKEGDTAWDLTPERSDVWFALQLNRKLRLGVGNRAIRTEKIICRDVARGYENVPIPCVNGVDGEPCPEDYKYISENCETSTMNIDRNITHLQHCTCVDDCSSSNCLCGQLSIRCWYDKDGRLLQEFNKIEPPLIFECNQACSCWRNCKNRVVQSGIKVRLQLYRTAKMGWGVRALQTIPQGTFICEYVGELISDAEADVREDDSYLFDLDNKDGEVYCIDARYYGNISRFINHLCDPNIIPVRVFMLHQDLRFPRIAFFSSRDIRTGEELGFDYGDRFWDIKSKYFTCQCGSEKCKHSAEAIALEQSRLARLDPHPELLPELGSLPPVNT
protocol text: MDA-MB-231 H3K9me2 in-cell Western assay (EHMT2 ICW)
Type: cell-based
study conditions: H3K9me2 in-cell Western, MDA-MB-231 cells; read-out: EHMT2 ICW (IC50 μM)
metric: IC50

{"compound": "CNc1cc(C)nc(Nc2ccc(OC)c(OC[C@@H]3CCN(C4CCC4)C3)c2)n1", "result": "< 0.1 µM"}
{"compound": "CNc1cc(C)nc(Nc2ccc(OC)c(OCC3CN(C4CC4)C3)c2)n1", "result": "0.1 to 1 µM"}
{"compound": "CNc1cc(C)nc(Nc2ccc(OC)c(OCCCN3CC4CC4C3)c2)n1 (stereo not shown)", "result": "0.1 to 1 µM"}
{"compound": "COc1cnc(Nc2nc(C)cc3[nH]ccc23)cc1OC[C@H]1CCN(C2CC2)C1 [Compound 494a]", "result": "0.1 to 1 µM"}
{"compound": "CNc1nc(C2=CCOCC2)c2cc(OC)c(OCCCN3CCCC3)cc2n1", "result": "1 to 10 µM"}
{"compound": "CNc1cc(C)nc(Nc2ccc(OC)c(OCCCN(C)C3CCC3)c2)n1", "result": "0.1 to 1 µM"}
{"compound": "COc1cnc(Nc2cccn3ccnc23)cc1OCCCN1CCCC1", "result": "> 10 µM"}
{"compound": "COc1ncc(Nc2nc(C)cc(NCC3CCOCC3)n2)cc1OCCCN1CCCC1", "result": "0.1 to 1 µM"}
{"compound": "CNc1nc(C2CCN(C(C)C)CC2)c2cc(OC)c(OC[C@@H]3CCN(C4CC4)C3)cc2n1", "result": "0.1 to 1 µM"}
{"compound": "CNc1nc(C2CC(C)(C)NC(C)(C)C2)c2cc(OC)c(OCCCN3CCCC3)cc2n1", "result": "> 10 µM"}
{"compound": "CCCCNc1nccc(NC)n1", "result": "> 10 µM"}
{"compound": "CC(C)N1CC(COc2cnc(NC3CCNCC3)nc2)C1", "result": "> 10 µM"}
{"compound": "CCN1CC(C(O)Oc2cc(Nc3nc(C)cc(NC)n3)ccc2OC)C1 (stereo not shown)", "result": "0.1 to 1 µM"}
